Give measured 8OG:A repair function score for each item. Keep answers brief.
B1: library; numbered along this chain (parent)
chain: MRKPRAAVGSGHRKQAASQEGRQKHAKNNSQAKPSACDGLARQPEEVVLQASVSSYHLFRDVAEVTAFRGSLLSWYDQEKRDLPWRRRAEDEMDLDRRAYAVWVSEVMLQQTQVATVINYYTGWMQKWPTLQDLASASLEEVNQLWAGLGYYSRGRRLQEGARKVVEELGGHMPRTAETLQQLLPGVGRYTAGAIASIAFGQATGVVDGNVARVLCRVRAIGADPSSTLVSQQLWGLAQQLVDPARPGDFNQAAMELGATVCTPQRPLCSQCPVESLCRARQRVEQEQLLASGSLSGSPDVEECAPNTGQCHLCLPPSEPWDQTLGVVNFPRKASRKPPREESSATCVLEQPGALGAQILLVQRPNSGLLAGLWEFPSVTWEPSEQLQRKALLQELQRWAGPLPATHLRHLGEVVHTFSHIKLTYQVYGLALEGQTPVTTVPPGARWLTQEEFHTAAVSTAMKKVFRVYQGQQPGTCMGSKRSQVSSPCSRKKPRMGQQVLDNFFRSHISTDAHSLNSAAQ

variants of: B1; test: 8OG:A repair function score (normalized; synonymous = 0, nonsense = -1) (normalized log-likelihood score); higher = more repair activity (WT-like); details: with 8OG:A DNA repair reporter (GFP) in HEK-293 MUTYH KO cells;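 also: cells sorted at 72 h after reporter transfection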
Give bare numbers.

Y121L ... -0.993
V261G ... -0.599
S343Y ... 0.129
L237R ... -0.738

Shifting focus to the variant that follows.
Indicate the recorded 8OG:A repair function score value for this variant: "A99L"
-0.788
